The values you see were collected from patent US20260265221A1.

Assay: In vitro liver microsomal stability, mouse
Assay type: in vitro ADME
Settings: 1 μM compound, 500 μg/mL liver microsomes, NADPH
Measurement Label: half-life at 1 μM (h)

Use the examples below as a reference point.
## Input What half-life at 1 μM value was documented for this compound, Cc1nc2ccc(CN3CCN(c4ccc(C(=O)N[C@H]5C[C@H]5F)nc4F)CC3)cc2[nH]c1=O ?
## Output 4.88

## Input And then Cc1nc2ccc(CN3CCN(c4ccc(C(=O)N[C@@H]5C[C@@H]5F)nc4F)CC3)cc2[nH]c1=O , what is it?
## Output 5.15

## Input And what about the compound CNC(=O)c1ccc(N2CCN(Cc3ccc4nc(C)c(=O)[nH]c4c3F)CC2)c(F)n1 [AZD9574, reference compound] ?
## Output 2.1

A: Cc1nc2ccc(CN3CCN(c4ccc(C(=O)NC5CC5)nc4F)CC3)c(F)c2[nH]c1=O
B: Cc1nc2ccc(CN3CCN(c4ccc(C(=O)NC5CC5)nc4F)CC3)cc2[nH]c1=O
## Input Given the listed items, does A or B have the lesser reported half-life at 1 μM? Which one? Tell me its label.
## Output B

====

Assay: In vivo pharmacokinetic experiment in CD-1 mice
Conditions: mouse, plasma; Oral administration (10 mg/kg), CD-1 female mice
Measurement Label: AUC(0-t) (µg·h/mL)

Illustrative cases are given below, each with its answer.
## Input Which AUC(0-t) is listed for CNC(=O)c1ccc(N2CCN(Cc3ccc4nc(C)c(=O)[nH]c4c3F)CC2)c(F)n1 [AZD9574, reference compound] ?
## Output 25.4

## Input Continue with Cc1nc2ccc(CN3CCN(c4ccc(C(=O)NC5CC5)nc4F)CC3)cc2[nH]c1=O
## Output 60.8

P: Cc1nc2ccc(CN3CCN(c4ccc(C(=O)N[C@H]5C[C@H]5F)nc4F)CC3)cc2[nH]c1=O
Q: Cc1nc2ccc(CN3CCN(c4ccc(C(=O)NC5CC5)nc4F)CC3)c(F)c2[nH]c1=O
R: Cc1nc2ccc(CN3CCN(c4ccc(C(=O)N[C@@H]5C[C@@H]5F)nc4F)CC3)cc2[nH]c1=O
## Input Would you mind ranking these compounds by ascending AUC(0-t)? Please express your ranking as an ordered list of the labels.
## Output Q, R, P
(Q: 20.4 µg·h/mL, R: 30.9 µg·h/mL, P: 60.8 µg·h/mL)

====

Assay: In vivo pharmacokinetic experiment in CD-1 mice
Settings: mouse, plasma; Oral administration (10 mg/kg), CD-1 female mice
Measurement Label: Cmax (ng/mL)

## Input Item under review: CNC(=O)c1ccc(N2CCN(Cc3ccc4nc(C)c(=O)[nH]c4c3F)CC2)c(F)n1 [AZD9574, reference compound] . Reported Cmax?
## Output 5140

## Input Ok, now Cc1nc2ccc(CN3CCN(c4ccc(C(=O)N[C@H]5C[C@H]5F)nc4F)CC3)cc2[nH]c1=O [Compound 1]
## Output 14800

1: Cc1nc2ccc(CN3CCN(c4ccc(C(=O)NC5CC5)nc4F)CC3)cc2[nH]c1=O [Compound 9]
2: Cc1nc2ccc(CN3CCN(c4ccc(C(=O)N[C@@H]5C[C@@H]5F)nc4F)CC3)cc2[nH]c1=O [Compound 2]
3: Cc1nc2ccc(CN3CCN(c4ccc(C(=O)NC5CC5)nc4F)CC3)c(F)c2[nH]c1=O [Compound 10]
## Input Hi! Can you put these in order of Cmax, lowest number first? Reply: labels, ordered per the request.
## Output 3, 2, 1
